# apparent Kd (screen) listing for each entry below
tested on: T1, TNFR1 (Homo sapiens, UniProt P19438)
T1 chain: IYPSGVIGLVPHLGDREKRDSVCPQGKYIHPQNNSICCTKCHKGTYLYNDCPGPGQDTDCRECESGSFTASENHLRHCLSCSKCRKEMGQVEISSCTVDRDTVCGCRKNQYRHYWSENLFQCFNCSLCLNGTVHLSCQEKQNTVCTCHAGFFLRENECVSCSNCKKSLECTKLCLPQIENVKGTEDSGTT
procedure details: yeast display SC50

binder	apparent Kd (screen) / pM
L3Y (designed binder) MTYQELLREEALRRAEAEAFRYALELLAEKFPEQKEYLLDLAEEIESQIRSLSGVDVEDVRKFLDKEWAWVKELLAEHPAELAEVEAARAARLAELRAEVEAKVAA	593
K62G (designed binder) MTLQELLREEALRRAEAEAFRYALELLAEKFPEQKEYLLDLAEEIESQIRSLSGVDVEDVRGFLDKEWAWVKELLAEHPAELAEVEAARAARLAELRAEVEAKVAA	869
E43D (designed binder) MTLQELLREEALRRAEAEAFRYALELLAEKFPEQKEYLLDLADEIESQIRSLSGVDVEDVRKFLDKEWAWVKELLAEHPAELAEVEAARAARLAELRAEVEAKVAA	790
V104R (designed binder) MTLQELLREEALRRAEAEAFRYALELLAEKFPEQKEYLLDLAEEIESQIRSLSGVDVEDVRKFLDKEWAWVKELLAEHPAELAEVEAARAARLAELRAEVEAKRAA	718
